Molecular target: T1, human TL1A (human, UniProt O95150 72-251)
T1 construct: Antigen in SPR and ELISA; Also used here for places that print only 'TL1A' and for endogenous TL1A in human whole blood; also called TNFSF15
T1 sequence (looked up): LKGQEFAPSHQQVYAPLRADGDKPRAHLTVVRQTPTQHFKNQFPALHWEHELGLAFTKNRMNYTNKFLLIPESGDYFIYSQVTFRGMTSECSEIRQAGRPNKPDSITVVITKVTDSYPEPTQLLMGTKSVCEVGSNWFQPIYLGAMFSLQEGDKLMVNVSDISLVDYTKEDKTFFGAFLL
Experiment: SPR, Fab lysate, average
readoutLabel: pKd
The quantity pKd is defined as the negative base-10 logarithm of the molar concentration.

Antibody 20 (Fab format) (Fab, V domains shown, High priority lead, Fab format) VH: QVQLQESGPGLVRPSQTLSLTCTVSGFDIQDTYMHWVRQRPGRGLEWMGRIEPASGHTKYNPSLKSRVTITRDTSKNQVSLRLSSVTAADTAVYYCARSGGMPDMWGQGSLVTVSS VL: DIQMTQSPSSLSASVGDRVTITCRASQGVMYMYWYQQKPGKAPKLLIYGASNLASGVPSRFSGSGSGTDFTFTISSLQPEDIATYYCQQWEGNPRTFGQGTKVEIK: 9.12

Recorded pKd (binder Antibody 5 (Fab format) (Fab, V domains shown, High priority lead, Fab format) VH: QVQLQESGPGLVRPSQTLSLTCTVSGFDMQDTYMHWVRQRPGRGLEWMGRIEPASGHTKYNPSLKSRVTITRDTSKNQVSLRLSSVTAADTAVYYCVRSGGLPDVWGQGSLVTVSS VL: DIQMTQSPSSLSASVGDRVTITCRASQGVMYMYWYQQKPGKAPKLLIYGASNLASGVPSRFSGSGSGTDFTFTISSLQPEDIATYYCQQWEGNPRTFGQGTKVEIK ): 9.48

Recorded pKd (binder Antibody 9 (Fab format) (Fab, V domains shown, High priority lead, Fab format) VH: QVQLQESGPGLVRPSQTLSLTCTVSGFDIQDTYMHWVRQRPGRGLEWMGRIEPAGGHTKYNPSLKSRVTITRDTSKNQVSLRLSSVTAADTAVYYCVRSGGLPDAWGQGSLVTVSS VL: DIQMTQSPSSLSASVGDRVTITCRASQGVGYMYWYQQKPGKAPKLLIYSASNLASGVPSRFSGSGSGTDFTFTISSLQPEDIATYYCQQWEGNPRTFGQGTKVEIK ): 9.37
